Organism: Rattus norvegicus
Assay: Open TG-GATES - Regimen: Single
Format: toxicity, organism-based, Sprague-Dawley
Design: regimen Single, gender Male, age 6 weeks
Conditions: in vivo, po, 0 mg/kg, 3 h, tissue Blood, route gavage, dose level Control
assay-readout: Lym (%)
Give a bare numeral; the unit % is implied.

Please review the entries below; each comes with its answer.
compound	unit-tag	Lym
CC[C@H]1[C@@H]2C[C@H]3[C@@H]4N(C)c5ccccc5[C@]45C[C@@H]([C@@H]2[C@H]5O)N3[C@@H]1O	%	80.2
CC1=C(CC(=O)O)c2cc(F)ccc2/C1=C\c1ccc([S+](C)[O-])cc1 (stereo not given)	%	77.4
OCCOCCN1CCN(C(c2ccccc2)c2ccc(Cl)cc2)CC1 (stereo not given) [HYDROXYZINE]	%	78

Req: I would be grateful if you could share the reported Lym for CC(C)N(CCC(C(N)=O)(c1ccccc1)c1ccccn1)C(C)C (stereo not given) [DISOPYRAMIDE] .
Resp: 77.6

Req: Which Lym value is on record for ClC(Cl)(Cl)Cl [CARBON TETRACHLORIDE] ?
Resp: 73.8

====

Measured Plat accompanies every entry in the list below.
Species on record: Rattus norvegicus
Experiment: Open TG-GATES - Regimen: Single
Assay type: toxicity, organism-based, Sprague-Dawley
Parameters: regimen Single, gender Male, age 6 weeks
Settings: in vivo, po, 0 mg/kg, 6 h, tissue Blood, route gavage, dose level Control

Before answering, review these 4 worked examples.
compound	Plat
CC1=C(CC(=O)O)c2cc(F)ccc2/C1=C\c1ccc([S+](C)[O-])cc1 (stereo not given)	121.9 x10_4/uL
CC(C)N(CCC(C(N)=O)(c1ccccc1)c1ccccn1)C(C)C (stereo not given) [DISOPYRAMIDE]	122.8 x10_4/uL
CN(C)C(=N)N=C(N)N	113.4 x10_4/uL
ClC(Cl)(Cl)Cl [CARBON TETRACHLORIDE]	140.4 x10_4/uL

Req: Item under review: `CC[C@H]1[C@@H]2C[C@H]3[C@@H]4N(C)c5ccccc5[C@]45C[C@@H]([C@@H]2[C@H]5O)N3[C@@H]1O` . Reported Plat?
Resp: 113.8 x10_4/uL

Req: Fill blank: measured Plat of the compound `O=NN(CCCl)C(=O)NC1CCCCC1` is ____.
Resp: 106.2 x10_4/uL

Req: What does the record list as Plat for `CCC1(c2ccccc2)C(=O)NC(=O)NC1=O` ?
Resp: 119.4 x10_4/uL

Req: # lookup: Plat of CN(C)CCC=C1c2ccccc2COc2ccccc21 [DOXEPIN]
Resp: 112.3 x10_4/uL

Req: Value lookup for Plat; key = OCCOCCN1CCN(C(c2ccccc2)c2ccc(Cl)cc2)CC1 (stereo not given) [HYDROXYZINE]
Resp: 116.6 x10_4/uL

Req: Fill blank: measured Plat of the compound `CCc1oc2ccccc2c1C(=O)c1cc(Br)c(O)c(Br)c1` is ____.
Resp: 103.2 x10_4/uL

====

Organism: Rattus norvegicus
Assay: Open TG-GATES - Regimen: Daily Repeat
Type: toxicity, organism-based, Sprague-Dawley
Set-up: regimen Daily Repeat, gender Male, age 6 weeks
Conditions: in vivo, po, 0 mg/kg, […], tissue Plasma, route gavage, dose level Control, time 7 day
assay-readout: IP (mg/dL)
Field format: number, assumed mg/dL, no unit text.

Answered examples (4):
compound	unit-tag	IP
CC1=C(CC(=O)O)c2cc(F)ccc2/C1=C\c1ccc([S+](C)[O-])cc1 (stereo not given)	mg/dL	7.2
O=NN(CCCl)C(=O)NC1CCCCC1	mg/dL	7.5
OCCOCCN1CCN(C(c2ccccc2)c2ccc(Cl)cc2)CC1 (stereo not given) [HYDROXYZINE]	mg/dL	8
CC[C@H]1[C@@H]2C[C@H]3[C@@H]4N(C)c5ccccc5[C@]45C[C@@H]([C@@H]2[C@H]5O)N3[C@@H]1O	mg/dL	7.9

--- query ---
Req: Consider the compound `CN(C)C(=N)N=C(N)N` and give its measured IP.
Resp: 7.8

====

Species: Rattus norvegicus
Test: Open TG-GATES - Regimen: Daily Repeat
Format: toxicity, organism-based, Sprague-Dawley
Design: regimen Daily Repeat, gender Male, age 6 weeks
Conditions: in vivo, po, 0 mg/kg, […], tissue Plasma, route gavage, dose level Control, time 14 day
The entries below come with measured CRE values attached.
State the result as a value with its unit after it.

Some entries whose results are on file:
compound	CRE
CN(C)C(=N)N=C(N)N	0.2 mg/dL
CCCCc1oc2ccccc2c1C(=O)c1cc(I)c(OCCN(CC)CC)c(I)c1	0.5 mg/dL
CC1=C(CC(=O)O)c2cc(F)ccc2/C1=C\c1ccc([S+](C)[O-])cc1 (stereo unspecified)	0.2 mg/dL
CC[C@H]1[C@@H]2C[C@H]3[C@@H]4N(C)c5ccccc5[C@]45C[C@@H]([C@@H]2[C@H]5O)N3[C@@H]1O	0.5 mg/dL
CCc1oc2ccccc2c1C(=O)c1cc(Br)c(O)c(Br)c1	0.5 mg/dL

Req: Looking for the measured CRE of CC(C)N(CCC(C(N)=O)(c1ccccc1)c1ccccn1)C(C)C (stereo unspecified) [DISOPYRAMIDE] , can you help?
Resp: 0.1 mg/dL

Req: Quick one: CRE for `CCC1(c2ccccc2)C(=O)NC(=O)NC1=O` ?
Resp: 0.6 mg/dL

Req: Name the reported CRE value associated with the compound CN(C)CCC=C1c2ccccc2COc2ccccc21 [DOXEPIN]
Resp: 0.2 mg/dL

Req: What value of CRE has been reported for the following compound? `O=NN(CCCl)C(=O)NC1CCCCC1`
Resp: 0.5 mg/dL

Req: Could you share which CRE value was measured for ClC(Cl)(Cl)Cl [CARBON TETRACHLORIDE] ?
Resp: 0.5 mg/dL

Req: Data request, read-out CRE, for OCCOCCN1CCN(C(c2ccccc2)c2ccc(Cl)cc2)CC1 (stereo unspecified) [HYDROXYZINE]
Resp: 0.2 mg/dL

====

Species on record: Rattus norvegicus
Experiment: Open TG-GATES - Regimen: Single
Type: toxicity, organism-based, Sprague-Dawley
Design: regimen Single, gender Male, age 6 weeks
Conditions: in vivo, po, 100 mg/kg, 24 h, tissue Plasma, route gavage, dose level Low
assay-readout: gamma-GTP (IU/L)
// note: answer is a bare numeric in IU/L

Consider the worked cases shown below.
molecule	gamma-GTP / IU/L
CN(C)CCC=C1c2ccccc2COc2ccccc21 [DOXEPIN]	1
CCC1(c2ccccc2)C(=O)NC(=O)NC1=O	0.8
O=NN1CCOCC1	0.9

Let us move to another entry and its gamma-GTP.
Req: Entry `CN(C)C(=N)N=C(N)N` : reported gamma-GTP = ?
Resp: 1.2

====

Organism: Rattus norvegicus
Assay: Open TG-GATES - Regimen: Daily Repeat
Assay type: toxicity, organism-based, Sprague-Dawley
Set-up: regimen Daily Repeat, gender Male, age 6 weeks
Conditions: in vivo, po, 0 mg/kg, […], tissue Blood, route gavage, dose level Control, time 14 day
assay-readout: Hb (g/dL)
Number in g/dL, nothing else.

Req: So what's the measured Hb for this one? `CC[C@H]1[C@@H]2C[C@H]3[C@@H]4N(C)c5ccccc5[C@]45C[C@@H]([C@@H]2[C@H]5O)N3[C@@H]1O`
Resp: 13.6

Req: // returns reported Hb for input OCCOCCN1CCN(C(c2ccccc2)c2ccc(Cl)cc2)CC1 (stereo not given) [HYDROXYZINE]
Resp: 14.1

Req: Consider the molecule shown here: `CCC1(c2ccccc2)C(=O)NC(=O)NC1=O` What is its recorded Hb?
Resp: 14.7

Req: Given `CN(C)C(=N)N=C(N)N` , state its recorded Hb.
Resp: 14.1

Req: Hb for `CCCCc1oc2ccccc2c1C(=O)c1cc(I)c(OCCN(CC)CC)c(I)c1` ?
Resp: 14.4

====

Readings of MCHC for the listed compounds
Organism: Rattus norvegicus
Experiment: Open TG-GATES - Regimen: Single
Assay type: toxicity, organism-based, Sprague-Dawley
Parameters: regimen Single, gender Male, age 6 weeks
Details: in vivo, po, 100 mg/kg, 24 h, tissue Blood, route gavage, dose level Low

compound	MCHC
CN(C)CCC=C1c2ccccc2COc2ccccc21 [DOXEPIN]	34%
CCC1(c2ccccc2)C(=O)NC(=O)NC1=O	36.2%
O=NN1CCOCC1	32.7%

Req: Look up MCHC for this compound: `CN(C)C(=N)N=C(N)N`
Resp: 33.6%

====

Organism: Rattus norvegicus
Assay: Open TG-GATES - Regimen: Daily Repeat
Format: toxicity, organism-based, Sprague-Dawley
Parameters: regimen Daily Repeat, gender Male, age 6 weeks
Details: in vivo, po, 0 mg/kg, 72 h, tissue Plasma, route gavage, dose level Control, time 3 day
assay-readout: TC (mg/dL)
Your answer should be a plain number; it is taken to be in mg/dL.

Worked set:
molecule	readout-number
ClC(Cl)(Cl)Cl [CARBON TETRACHLORIDE]	82.4
OCCOCCN1CCN(C(c2ccccc2)c2ccc(Cl)cc2)CC1 (stereo not given) [HYDROXYZINE]	73
CC1=C(CC(=O)O)c2cc(F)ccc2/C1=C\c1ccc([S+](C)[O-])cc1 (stereo not given)	80.4
CCCCc1oc2ccccc2c1C(=O)c1cc(I)c(OCCN(CC)CC)c(I)c1	77.6
CC[C@H]1[C@@H]2C[C@H]3[C@@H]4N(C)c5ccccc5[C@]45C[C@@H]([C@@H]2[C@H]5O)N3[C@@H]1O	79.4

Req: Reported TC, molecule `CCC1(c2ccccc2)C(=O)NC(=O)NC1=O` : ____
Resp: 80.2

Req: // TC lookup, key: CC(C)N(CCC(C(N)=O)(c1ccccc1)c1ccccn1)C(C)C (stereo not given) [DISOPYRAMIDE]
Resp: 71.6

Data provenance is ChEMBL document CHEMBL3885861.
